target: uPA (Homo sapiens, UniProt P00749); assay: FRET peptide cleavage efficiency with uPA; assay type: biochemical; conditions: t = 120 min; 200 uM linker, 1 ug/ml protease, 37° C., buffer A pH 8.5
Square brackets hold non-standard residues; d marks the D form. Ends that are not written are not given here. Tyr(3-NO2) = N[C@@H](Cc1ccc(O)c([N+](=O)[O-])c1)C(=O)O; 2Abz = Nc1ccccc1C(=O)O
measured endpoint: % cleavage uPA t = 120 min (%)
Supply the numeric figure in %, leaving out any unit text.

// solved cases for % cleavage uPA t = 120 min follow
> print(dat)
                                  substance           measured.endpoint  reported
1  KSKQHSL ([2Abz]KSKQHSL[Tyr(3-NO2)]-NH2) [LNK077]  % cleavage uPA t = 120 min         0
2  RSSYYSL ([2Abz]RSSYYSL[Tyr(3-NO2)]-NH2) [LNK076]  % cleavage uPA t = 120 min         0
3  SGRVLTLRKAALPLAM ([2Abz]SGRVLTLRKAALPLAM[Tyr(3-NO2)]-NH2) [LNK020]  % cleavage uPA t = 120 min        45

Returns the measured % cleavage uPA t = 120 min for the input substance. Input: SGRVLPLGMRA ([2Abz]SGRVLPLGMRA[Tyr(3-NO2)]-NH2) [LNK023] 3

What % cleavage uPA t = 120 min value was documented for this substance, SGRVLRKAGPANLVG ([2Abz]SGRVLRKAGPANLVG[Tyr(3-NO2)]-NH2) [LNK014] ? 7

###

Biological target: matriptase (Homo sapiens)
Construct: purchased R&D Systems 3946-SEB
Sequence (Q9Y5Y6 615-855 limits assumed): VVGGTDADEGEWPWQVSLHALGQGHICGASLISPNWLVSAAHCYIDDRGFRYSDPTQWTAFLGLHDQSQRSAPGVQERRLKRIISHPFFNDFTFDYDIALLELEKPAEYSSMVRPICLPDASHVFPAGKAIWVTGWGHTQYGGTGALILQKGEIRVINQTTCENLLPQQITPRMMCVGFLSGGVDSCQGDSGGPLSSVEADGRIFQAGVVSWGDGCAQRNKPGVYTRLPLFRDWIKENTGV
Test: FRET peptide cleavage efficiency with matriptase
Assay type: biochemical
Conditions: t = 60 min; 200 uM linker, 1 ug/ml protease, 37° C., buffer B pH 9.0
Square brackets hold non-standard residues; d marks the D form. Ends that are not written are not given here. Tyr(3-NO2) = N[C@@H](Cc1ccc(O)c([N+](=O)[O-])c1)C(=O)O; 2Abz = Nc1ccccc1C(=O)O
measured endpoint: % cleavage Matriptase t = 60 min (%)
API: value field is a number in %; no unit string.

> print(dat)
                                  substance  reported
1  RGRRPLGYFGKL ([2Abz]RGRRPLGYFGKL[Tyr(3-NO2)]-NH2) [LNK057]        78
2  SGRVLRKAGPQPLVD ([2Abz]SGRVLRKAGPQPLVD[Tyr(3-NO2)]-NH2) [LNK003]        91
3  RGRRSGRAANLVRPLGYFGKL ([2Abz]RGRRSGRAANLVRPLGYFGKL[Tyr(3-NO2)]-NH2) [LNK059]       100

Form field: reported % cleavage Matriptase t = 60 min of GSSYYSGA ([2Abz]GSSYYSGA[Tyr(3-NO2)]-NH2) [LNK079] 0
